All figures here come from patent US11034661B2.

target: IDO1 in Hela cells stimulated with IFNγ (Homo sapiens (Human)); assay: IDO1 Cellular Assay in Hela Cells Stimulated with IFNγ; settings: IFNγ 100 ng/mL, about 48 hours, fluorescence readout, read-out: IDO1 HELA Cell Assay, IC50
quantity kind: IC50 (nM)
Answers are plain numbers, in nM.

The examples below pair each entry with its known result.
INSERT INTO measurements (smiles_code, val) VALUES
  ('C[C@@H](O)CNC(=O)COc1nonc1/C(=N/O)N[C@H]1Cc2ccc(F)cc21', 335),
  ('NC(=O)N1CC(Oc2nonc2/C(=N/O)N[C@H]2Cc3ccc(F)cc32)C1', 36),
  ('CC(=O)NCCOc1nonc1/C(=N/O)N[C@H]1Cc2ccc(F)cc21', 51.4);

From here, focus on the item given below.
Query block: In one line, give reported IC50 of the entry O=C(N1CC(Oc2nonc2/C(=N/O)N[C@H]2Cc3ccc(F)cc32)C1)C1(O)CC1 .
Result block: 49.9

----------
biological target: HIS-tagged IDO1 protein (Homo sapiens (Human), UniProt P14902); assay: IDO1 Enzyme Assay; details: recombinant IDO1 40 nM, tryptophan substrate, fluorescence readout
Sequence (P14902 whole entry): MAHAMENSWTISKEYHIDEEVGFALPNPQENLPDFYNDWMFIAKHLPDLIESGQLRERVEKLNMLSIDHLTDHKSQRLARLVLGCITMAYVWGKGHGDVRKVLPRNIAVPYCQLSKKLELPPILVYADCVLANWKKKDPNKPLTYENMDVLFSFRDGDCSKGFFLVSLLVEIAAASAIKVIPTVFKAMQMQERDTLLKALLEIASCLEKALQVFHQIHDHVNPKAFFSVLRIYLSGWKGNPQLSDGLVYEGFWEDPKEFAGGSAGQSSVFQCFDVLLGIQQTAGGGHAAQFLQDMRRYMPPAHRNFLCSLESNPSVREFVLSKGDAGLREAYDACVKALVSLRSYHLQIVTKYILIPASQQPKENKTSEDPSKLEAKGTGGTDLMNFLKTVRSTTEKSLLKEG
pIC50: −log10 of the molar value.
Tick Fulfilled if pIC50 is 7 or greater. Tick Not fulfilled if pIC50 is less than 7.

Query block: Please check the record NS(=O)(=O)NCCOc1nonc1/C(=N/O)N[C@H]1Cc2ccc(F)cc21 [Example 1] and state if its pIC50 is at or above 7.
Result block: Fulfilled

Query block: Item CS(=O)(=O)NCCOc1nonc1/C(=N/O)N[C@H]1Cc2ccc(F)cc21 [Example 6] with pIC50 of 7 or above?
Result block: Fulfilled

Query block: Check if pIC50 >= 7 (inclusive). Item: NC(=O)N(CCO)CCOc1nonc1/C(=N/O)NC1Cc2ccc(F)cc21 (centres unmarked) [Example 15]
Result block: Not fulfilled

Query block: Does the compound CS(=O)(=O)CCOc1nonc1/C(=N/O)N[C@H]1Cc2ccc(F)cc21 [Example 27] have recorded pIC50 that is 7 or more?
Result block: Not fulfilled

Query block: Identify whether the reported pIC50 of the following compound is 7 or greater: NS(=O)(=O)N1CC[C@@H](Oc2nonc2/C(=N/O)N[C@H]2Cc3ccc(F)cc32)C1 [Example 31]
Result block: Not fulfilled

Query block: Would you say CC(=O)N[C@@H](CO)COc1nonc1/C(=N/O)N[C@H]1Cc2ccc(F)cc21 [Example 52] shows pIC50 at minimum 7?
Result block: Not fulfilled

Query block: Hello, I need to know if CC(Oc1nonc1/C(=N/O)NC1Cc2ccc(F)cc21)C(=O)NCCO (centres unmarked) [Example 23] has measured pIC50 not below 7. Thanks!
Result block: Not fulfilled

Query block: For this compound, is measured pIC50 7 or higher? CC(C)(O)C(=O)N[C@H]1C[C@@H](Oc2nonc2/C(=N/O)N[C@H]2Cc3ccc(F)cc32)C1 [Example 66]
Result block: Not fulfilled

Query block: # bool: pIC50 of CC(C)(O)CNC(=O)COc1nonc1/C(=N/O)NC1Cc2ccc(F)cc21 (centres unmarked) [Example 14] >= 7
Result block: Not fulfilled

Query block: API: above_or_equal(metric=pIC50, cutoff=7) for item CC(=O)NC[C@H](C)Oc1nonc1/C(=N/O)N[C@H]1Cc2ccc(F)cc21 [Example 40]
Result block: Not fulfilled

Query block: Reported pIC50 at or above 7? NC(=O)N[C@H]1C[C@H](Oc2nonc2/C(=N/O)N[C@H]2Cc3ccc(F)cc32)C1 [Example 57]
Result block: Not fulfilled

Query block: Given the entry NS(=O)(=O)N1CC[C@H](Oc2nonc2/C(=N/O)N[C@H]2Cc3ccc(F)cc32)C1 [Example 32] , answer whether its pIC50 meets or surpasses 7.
Result block: Not fulfilled

----------
Please go through the items and note down their pIC50.
Target: IDO1 in Hela cells stimulated with IFNγ (Homo sapiens (Human))
Experiment: IDO1 Cellular Assay in Hela Cells Stimulated with IFNγ
Settings: IFNγ 100 ng/mL, about 48 hours, fluorescence readout, read-out: IDO1 HELA Cell Assay, IC50
Protocol: IDO1 Cellular Assay in Hela Cells Stimulated with IFNγ Hela cells were cultured in complete Hela culture medium (90% EMEM, 10% heat-inactivated fetal bovine serum) and expanded to about 1×10^9 cells. […] Frozen Hela cells were thawed and transferred into Hela assay medium (99% complete Hela culture medium, 1% Pen/Strep) with 20 mL medium/vial of cells. […] The cells were then counted and adjusted to a density of 2×10^5 cells/ml in Hela assay medium. […]
Answers are plain numbers, as −log10 of the molar value.

Some molecules with known pIC50 results, for comparison:
INSERT INTO assay_data (molecule, quantity_kind, val) VALUES
  ('CS(=O)(=O)CCOc1nonc1/C(=N/O)N[C@H]1Cc2ccc(F)cc21 [Example 27]', 'pIC50', 5.88),
  ('O=C(CO)N1CC[C@H](Oc2nonc2/C(=N/O)N[C@H]2Cc3ccc(F)cc32)C1 [Example 25]', 'pIC50', 5.70),
  ('O=C(NCCOc1nonc1/C(=N/O)N[C@H]1Cc2ccc(F)cc21)[C@@H](O)CO [Example 26]', 'pIC50', 6.55),
  ('CC(=O)N[C@@H](CO)COc1nonc1/C(=N/O)N[C@H]1Cc2ccc(F)cc21 [Example 52]', 'pIC50', 5.89),
  ('COC(=O)NCCOc1nonc1/C(=N/O)N[C@H]1Cc2ccc(F)cc21 [Example 41]', 'pIC50', 6.74);

// input: 7 molecules below; output: pIC50 for each
1. CC(=O)N[C@H]1C[C@H](Oc2nonc2/C(=N/O)N[C@H]2Cc3ccc(F)cc32)C1 [Example 37]
2. NS(=O)(=O)N1CC[C@@H](Oc2nonc2/C(=N/O)N[C@H]2Cc3ccc(F)cc32)C1 [Example 31]
3. NS(=O)(=O)NCCOc1nonc1/C(=N/O)N[C@H]1CCc2ccc(F)cc21 [Example 24]
4. CC(Oc1nonc1/C(=N/O)NC1Cc2ccc(F)cc21)C(=O)NCCO (centres unmarked) [Example 23]
5. C[C@H](O)C(=O)N1CC(Oc2nonc2/C(=N/O)N[C@H]2Cc3ccc(F)cc32)C1 [Example 48]
6. C[C@H](O)CNC(=O)COc1nonc1/C(=N/O)N[C@H]1Cc2ccc(F)cc21 [Example 9]
7. CC(C)(COc1nonc1/C(=N/O)N[C@H]1Cc2ccc(F)cc21)NC(=O)CO [Example 35]

Result block:
[7.04, 6.13, 5.88, 5.72, 7.05, 6.21, 5.69]

I have 5 molecules here; please give me pIC50 for each one.
1. NS(=O)(=O)N1CC[C@H](Oc2nonc2/C(=N/O)N[C@H]2Cc3ccc(F)cc32)C1 [Example 32]
2. O=C(COc1nonc1/C(=N/O)N[C@H]1Cc2ccc(F)cc21)N1CC[C@H](O)C1 [Example 45]
3. CC(=O)NC[C@H](C)Oc1nonc1/C(=N/O)N[C@H]1Cc2ccc(F)cc21 [Example 40]
4. CC(=O)NC[C@@H](CO)Oc1nonc1/C(=N/O)N[C@H]1Cc2ccc(F)cc21 [Example 55]
5. NC(=O)N(CCO)CCOc1nonc1/C(=N/O)NC1Cc2ccc(F)cc21 (centres unmarked) [Example 15]

Result block:
1: 6.47; 2: 5.89; 3: 5.99; 4: 6.48; 5: 6.16

----------
molecular target: IDO1 in Hela cells stimulated with IFNγ (Homo sapiens (Human)); test: IDO1 Cellular Assay in Hela Cells Stimulated with IFNγ; settings: IFNγ 100 ng/mL, about 48 hours, fluorescence readout, read-out: IDO1 HELA Cell Assay, IC50
pIC50: −log10 of the molar value.
Would you mind classing the entries by pIC50? Ranges: low end: < 6; middle: ≥ 6 and < 7; high end: ≥ 7

Take a look at these entries with their results.
INSERT INTO results (compound, category_label) VALUES
  ('CC(C)(Oc1nonc1/C(=N/O)NC1Cc2ccc(F)cc21)C(=O)NCCO (centres unmarked)', 'low end'),
  ('CS(=O)(=O)NCCOc1nonc1/C(=N/O)N[C@H]1Cc2ccc(F)cc21', 'high end'),
  ('C[C@@H](CNC(=O)CO)Oc1nonc1/C(=N/O)N[C@H]1Cc2ccc(F)cc21', 'low end'),
  ('O=C(COc1nonc1/C(=N/O)N[C@H]1Cc2ccc(F)cc21)NCCO', 'middle'),
  ('O=C(N[C@H]1C[C@@H](Oc2nonc2/C(=N/O)N[C@H]2Cc3ccc(F)cc32)C1)C1(O)CC1', 'middle');

Query block: Given NC(=O)NCCCOc1nonc1/C(=N/O)N[C@H]1Cc2ccc(F)cc21 , name the class its pIC50 places it in.
Result block: middle

Query block: Class (by measured pIC50) for O/N=C(\N[C@H]1Cc2ccc(F)cc21)c1nonc1OCCn1cnnc1
Result block: middle

Query block: Could you tell me which band NC(=O)N[C@H]1C[C@@H](Oc2nonc2/C(=N/O)N[C@H]2Cc3ccc(F)cc32)C1 belongs to?
Result block: high end
